Test system: EPHA3
Details: concentration: 1 μM, replicates: in singlicate; n = 1;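 also: KINOMEscan kinase panel screen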
READOUT NAME: %Inh
Please append the unit to your numeric answer.

Cl.Cn1ccc(-c2cccc(Nc3ccnc4cc(-c5nccs5)ccc34)c2)n1
100%
O=C(c1ccc(-c2cc(-c3c[nH]nc3-c3ccccn3)ccn2)cc1)N1CCCC1
1%
Cl.O=S(=O)(c1cccc(F)c1)c1ccc(Nc2ncnc3cc(Br)sc23)cc1Cl
14%
O=c1cc(N2CCOCC2)nc2n(Cc3cccc(Cl)c3)ccn12
82%
COc1ccc(NC(=O)c2ccc(-c3cc(-c4nnc(C)o4)ccc3C)cc2)cc1
0%

Request: Quick one: %Inh of Fc1cccc(COc2ccc(Nc3ncnc4cc[nH]c34)cc2Cl)c1 ?
Result: 0%

* * *

Tested on: EPHA2
Conditions: concentration: 1 μM, replicates: in singlicate; n = 1
READOUT NAME: %Inh (%)
Answers are plain numbers, in %.

Go through the items and report each one's %Inh.
1. OCCOCCn1ccc2ncnc(Nc3ccc(Oc4cccc(Cl)c4)c(Cl)c3)c21
2. CS(=O)(=O)CCNCc1nc(-c2ccc3ncnc(Nc4ccc(OCc5cccc(F)c5)c(Cl)c4)c3c2)cs1.Cl
3. O=C(Nc1n[nH]c2nc(-c3ccco3)c(Br)cc12)c1ccc(CN2CCCC2)cc1.O=C(O)[C@H](O)[C@@H](O)C(=O)O
4. O=c1cc(N2CCOCC2)nc2n(Cc3cccc(Cl)c3)ccn12
5. CNc1nccc(-c2c(-c3ccc(F)cc3)ncn2C2CCN(C)CC2)n1
6. Cn1cc(-c2ccc3c(c2)CCN3C(=O)Cc2cccc(C(F)(F)F)c2)c2c(N)ncnc21
7. O=C(Nc1ccccc1F)NC1CCN(c2ccnc(Nc3ccc(F)cc3)n2)C1 (centres unmarked)

Result:
1: 1; 2: 0; 3: 0; 4: 14; 5: 0; 6: 0; 7: 8

// for each compound below, give its %Inh
1. Cl.Cl.c1ccc(-c2cc3ccncc3cc2OC2CCNCC2)cc1
2. Fc1cccc(COc2ccc(Nc3ncnc4cc[nH]c34)cc2Cl)c1

Result:
[13, 15]

For the 2 compounds below, give their %Inh values.
1. Fc1cccc(COc2ccc(Nc3ncnc4sc(-c5ccc[nH]5)cc34)cc2Cl)c1
2. Cl.c1ccc(Cn2ccc3cc(Nc4ncnc5ccccc45)ccc32)cc1

Result:
0
1

* * *

Tested on: PIM3
Settings: concentration: 1 μM, replicates: in singlicate; n = 1
READOUT NAME: %Inh (%)
One number for each entry, in %.

Cn1cc(-c2ccc3c(c2)CCN3C(=O)Cc2cccc(C(F)(F)F)c2)c2c(N)ncnc21
0

For every item below, please supply its %Inh.
1. Cl.c1ccc(Cn2ccc3cc(Nc4ncnc5ccccc45)ccc32)cc1
2. NC(=O)c1sc(-n2cnc3ccccc32)cc1OCc1ccccc1F
3. Cl.Cl.c1ccc(-c2cc3ccncc3cc2OC2CCNCC2)cc1

Result:
1. 23
2. 0
3. 39

Provide %Inh values for the following items, in order.
1. FC(F)(F)c1ccc(-c2cc(-c3c[nH]nc3-c3ccccn3)ccn2)cc1
2. Fc1cccc(COc2ccc(Nc3ncnc4cc[nH]c34)cc2Cl)c1
3. Cn1ccc2ncnc(Oc3ccc(NC(=O)Nc4cccnc4)c(Cl)c3)c21
4. COc1ccc(-c2oc3ncnc(N)c3c2-c2ccc(OC)cc2)cc1

Result:
51
34
0
0

// batch mode: one %Inh value per listed entry
1. CN1c2ccc(-c3ccc(C(=O)NCCO)cc3)cc2-c2[nH]ncc2S1(=O)=O
2. CNc1nccc(-c2c(-c3ccc(F)cc3)ncn2C2CCN(C)CC2)n1
3. CCn1c(-c2ccncc2)nc2cnccc21
4. Nc1nc(-c2ccccn2)c(-c2ccnc3ccccc23)s1
5. CSc1ccc(NC2=C(c3ccccc3Cl)C(=O)NC2=O)cc1

Result:
24
0
21
0
0

Kindly give each listed record's %Inh.
1. COc1cc2ncnc(Nc3ccc(OCc4ccccc4Br)c(Cl)c3)c2cc1OC.Cl
2. Cl.O=S(=O)(c1cccc(F)c1)c1ccc(Nc2ncnc3cc(Br)sc23)cc1Cl

Result:
[15, 0]

* * *

Tested on: PAK2
Conditions: concentration: 1 μM, replicates: in singlicate; n = 1
Please respond with T when measured %Inh is strictly beneath 10%, and with F in all other cases.

// known answers, use as guide
Cl.Cl.c1ccc(-c2cc3ccncc3cc2OC2CCNCC2)cc1
F
COc1cc2ncnc(Nc3ccc(OCc4ccccc4Br)c(Cl)c3)c2cc1OC.Cl
F
CS(=O)(=O)CCNCc1ccc(-c2ccc3ncnc(Nc4ccc(OCc5ccccc5)c(Cl)c4)c3c2)o1.Cl
T
Fc1ccc(Nc2nccc(-c3c(-c4ccc(Cl)cc4)nn4ncccc34)n2)cc1F
F
CC(=O)Nc1n[nH]c2ncc(-c3ccccc3)cc12
F
Cl.c1ccc(Cn2ccc3cc(Nc4ncnc5ccccc45)ccc32)cc1
F

Request: Just wondering, is %Inh of COc1ccc(Nc2nccc(N3CCC(NC(=O)c4cccc(NC(C)=O)c4)C3)n2)cc1 (stereo not drawn) below 10%?
Result: T

Request: Identify whether the compound CCC(CC)(CC)n1cnc2c(N)ncnc21 records %Inh below 10%.
Result: F

Request: # TODO verify %Inh < 10% strictly for this compound: Fc1cccc(COc2ccc(Nc3ncnc4nn5ccccc5c34)cc2Cl)c1
Result: F

* * *

Exercise: state measured %Inh for each of the molecules provided.
Test system: CSNK1G3
Conditions: concentration: 1 μM, replicates: in singlicate; n = 1
Answers are plain numbers, in %.

Nc1nc(-c2ccccn2)c(-c2ccnc3ccccc23)s1 [GW548057]
27

Parameter requested: %Inh. Apply to each item below.
1. CC(=O)Nc1n[nH]c2ncc(-c3ccccc3)cc12 [SB-548492]
2. Fc1cccc(COc2ccc(Nc3ncnc4sc(-c5ccc[nH]5)cc34)cc2Cl)c1 [GW707818]
3. Fc1ccc(-c2ncn(CCCNCc3ccccc3)c2-c2ccncc2)cc1

Result:
1: 4; 2: 31; 3: 20

* * *

So I've got a bunch of compounds here, and I need their %Inh values.
System: CDK5
Conditions: concentration: 1 μM, replicates: in singlicate; n = 1
Give bare numbers, in %.

Reference set (5 entries):
Cn1ccc2ncnc(Nc3ccc(Oc4cccc(Cl)c4)c(Cl)c3)c21
21
FC(F)(F)c1cc(Nc2nccc(-c3c(-c4ccc(Cl)cc4)nn4ncccc34)n2)ccc1Cl [GW829351]
0
Oc1ccc2ncnc(Nc3ccc(OCc4ccccc4)cc3)c2c1 [GI262866]
0
Clc1cc(Nc2ncnc3cc[nH]c23)ccc1OCc1ccccn1
22
Cl.Fc1ccccc1COc1ccc(Nc2ncnc3ccc(-c4nnc(C(F)(F)F)o4)cc23)cc1Cl [GW424170]
0

Read the next record carefully.
Request: GET /values?readout=%Inh&item= Cl.Cn1ccc(-c2cccc(Nc3ccnc4cc(-c5nccs5)ccc34)c2)n1 [GW525701]
Result: 0

* * *

Test system: CLK1
Conditions: concentration: 1 μM, replicates: in singlicate; n = 1
If the reported %Inh equals or exceeds 20%, assign 1. If not, assign 0.

Example results:
Cc1ccc(C)c(NC(=O)NCCNc2ccnc(Nc3ccc(F)cc3)n2)c1 [GSK1379878]
1
Cl.c1ccc(Cn2ccc3cc(Nc4ncnc5ccccc45)ccc32)cc1 [GW275568]
1
CCCc1ccc(S(=O)(=O)NC2CCN(c3ccnc(Nc4ccc(OC)cc4)n3)C2)cc1 (centres unmarked) [GSK1379737]
1
O=c1cc(N2CCOCC2)nc2n(Cc3cccc(Cl)c3)ccn12 [GSK2296823]
1
COc1cc2c(Nc3cccc(NC(=O)c4ccccc4)c3)ncnc2cc1OCCCN1CCOCC1 [GSK223810]
0

Request: Could you tell me if the measured %Inh of Fc1ccc(-c2ncn(CCCNCc3ccccc3)c2-c2ccncc2)cc1 reaches 20% or more?
Result: 1

Request: Confirm if %Inh reported for the compound COC(=O)c1c(-c2ccccc2)c2cc(Cl)ccc2c(=O)n1Cc1ccc(S(C)(=O)=O)cc1 is 20% or above.
Result: 0

Request: Item Oc1ccc2ncnc(Nc3ccc(OCc4ccccc4)cc3)c2c1 [GI262866] with %Inh of 20% or above?
Result: 1

* * *

Field: %Inh. Provide a value for each of the compounds that follow.
Test system: PRKCI
Details: concentration: 1 μM, replicates: in singlicate; n = 1
Give bare numbers, in %.

Look over these answered cases.
Cl.O=S(=O)(c1cccc(F)c1)c1ccc(Nc2ncnc3cc(Br)sc23)cc1Cl
0
Nc1nc(-c2cccnc2)c(-c2ccnc3ccccc23)s1
21
Clc1cc(Nc2ncnc3cc[nH]c23)ccc1OCc1ccccn1
9
FC(F)(F)c1cc(Nc2nccc(-c3c(-c4ccc(Cl)cc4)nn4ncccc34)n2)ccc1Cl
0

Please state %Inh for every compound in the list that follows.
1. CN1CCC(n2cnc(-c3ccc(F)cc3)c2-c2ccnc(NC3CCNCC3)n2)CC1
2. COc1ccc(-c2oc3ncnc(N)c3c2-c2ccc(OC)cc2)cc1

Result:
1. 0
2. 35

* * *

Tested on: PLK3
Conditions: concentration: 1 μM, replicates: in singlicate; n = 1
READOUT NAME: %Inh (%)
One number for each entry, in %.

CNc1nccc(-c2c(-c3ccc(F)cc3)ncn2CCCN2CCOCC2)n1
0
FC(F)(F)c1ccc(-c2nn3ncccc3c2-c2ccnc(Nc3cccc(C(F)(F)F)c3)n2)cc1
18
Cl.Fc1ccccc1COc1ccc(Nc2ncnc3ccc(-c4nnc(C(F)(F)F)o4)cc23)cc1Cl
0
Cl.Cl.c1ccc(-c2cc3ccncc3cc2OC2CCNCC2)cc1
0
Fc1cccc(COc2ccc(Nc3ncnc4sc(-c5ccc[nH]5)cc34)cc2Cl)c1
19
CCn1c(-c2ccncc2)nc2cnccc21
16
COC(=O)c1cccc(NC(=O)NCCNc2ccnc(Nc3ccc(F)cc3)n2)c1
0

Could you now look at the following compound, please?
Request: Recall the recorded %Inh for O=C(Nc1ccccc1F)NC1CCN(c2ccnc(Nc3ccc(F)cc3)n2)C1 (centres unmarked) with PLK3 and state it.
Result: 0

Reference for the values: paper PMC5540273
